Study System: α2β1 integrin (Homo sapiens, UniProt P05556+P17301)
Construct: endogenous in cells; host or cells: gel-filtered human platelets of a single donor
Sequence (P17301 30-1181): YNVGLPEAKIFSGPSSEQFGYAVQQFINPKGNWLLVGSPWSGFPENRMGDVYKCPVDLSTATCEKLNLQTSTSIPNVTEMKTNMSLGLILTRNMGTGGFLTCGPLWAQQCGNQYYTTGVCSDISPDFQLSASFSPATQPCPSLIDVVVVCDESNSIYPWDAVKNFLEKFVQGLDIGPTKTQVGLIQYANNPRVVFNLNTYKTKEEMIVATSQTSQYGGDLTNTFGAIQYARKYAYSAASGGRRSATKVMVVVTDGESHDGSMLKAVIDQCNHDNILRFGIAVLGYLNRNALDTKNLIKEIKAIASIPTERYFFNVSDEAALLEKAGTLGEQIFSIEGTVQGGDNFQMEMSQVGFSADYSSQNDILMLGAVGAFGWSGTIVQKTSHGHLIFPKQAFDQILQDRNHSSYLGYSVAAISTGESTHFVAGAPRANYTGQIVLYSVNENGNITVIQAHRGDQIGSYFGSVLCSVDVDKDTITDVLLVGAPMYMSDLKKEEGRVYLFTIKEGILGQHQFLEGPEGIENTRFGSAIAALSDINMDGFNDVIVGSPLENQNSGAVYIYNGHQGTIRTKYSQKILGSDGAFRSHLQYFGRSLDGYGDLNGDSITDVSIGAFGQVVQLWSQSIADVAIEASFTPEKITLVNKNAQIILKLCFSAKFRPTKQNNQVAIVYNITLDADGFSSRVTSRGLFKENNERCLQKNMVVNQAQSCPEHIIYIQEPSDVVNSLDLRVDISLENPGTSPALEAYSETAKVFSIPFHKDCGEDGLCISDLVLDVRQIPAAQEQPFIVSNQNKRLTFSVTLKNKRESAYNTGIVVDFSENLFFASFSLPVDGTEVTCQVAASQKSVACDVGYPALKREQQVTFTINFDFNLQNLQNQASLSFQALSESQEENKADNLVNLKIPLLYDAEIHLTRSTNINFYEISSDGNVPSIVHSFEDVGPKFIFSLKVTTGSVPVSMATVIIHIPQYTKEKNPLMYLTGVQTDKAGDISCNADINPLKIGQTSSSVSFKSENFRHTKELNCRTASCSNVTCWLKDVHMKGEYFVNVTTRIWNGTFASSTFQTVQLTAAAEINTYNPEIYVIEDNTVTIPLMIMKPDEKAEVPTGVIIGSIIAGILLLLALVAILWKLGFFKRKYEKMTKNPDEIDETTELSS
Sequence (P05556 21-798): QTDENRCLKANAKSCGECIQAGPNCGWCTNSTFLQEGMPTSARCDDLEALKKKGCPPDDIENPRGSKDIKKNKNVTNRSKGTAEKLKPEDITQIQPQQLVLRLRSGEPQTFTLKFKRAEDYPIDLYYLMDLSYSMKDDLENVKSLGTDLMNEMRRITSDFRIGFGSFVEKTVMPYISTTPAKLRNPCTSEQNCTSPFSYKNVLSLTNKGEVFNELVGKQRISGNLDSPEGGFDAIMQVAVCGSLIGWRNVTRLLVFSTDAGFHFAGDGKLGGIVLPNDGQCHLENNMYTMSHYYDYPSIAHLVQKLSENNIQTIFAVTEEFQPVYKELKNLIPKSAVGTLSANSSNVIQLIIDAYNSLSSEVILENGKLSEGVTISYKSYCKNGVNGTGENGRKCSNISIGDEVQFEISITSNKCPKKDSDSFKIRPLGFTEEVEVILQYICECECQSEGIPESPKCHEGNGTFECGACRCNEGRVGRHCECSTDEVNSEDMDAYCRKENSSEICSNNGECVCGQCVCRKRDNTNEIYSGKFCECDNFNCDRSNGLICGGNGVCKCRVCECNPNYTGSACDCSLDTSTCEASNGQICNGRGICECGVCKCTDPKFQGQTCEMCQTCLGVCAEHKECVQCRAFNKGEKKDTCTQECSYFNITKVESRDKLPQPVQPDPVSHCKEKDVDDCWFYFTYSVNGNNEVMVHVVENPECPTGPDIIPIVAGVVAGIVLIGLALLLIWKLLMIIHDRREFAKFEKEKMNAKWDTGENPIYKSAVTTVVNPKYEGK
Measurement Description: Platelet adhesion assay (human platelet adhesion to type I collagen)
Type: cell-based
Condition Summary: human platelet adhesion to type I (soluble, monomeric) collagen, static conditions; single donor; read-out: IC50
Quantity Name: IC50
Field note: include the unit after the figure.

Study these solved cases before continuing.
O=C(NC[C@H](NC(=O)[C@@H]1CCCN1S(=O)(=O)c1ccccc1)C(=O)O)c1ccccc1 :: 660 nM
Cc1cc(C)cc(S(=O)(=O)N2CCC[C@H]2C(=O)N[C@@H](CNC(=O)NCc2ccccc2)C(=O)O)c1 :: 29 nM
O=C(NCc1ccccc1)NC[C@H](NC(=O)[C@@H]1CCCN1S(=O)(=O)Cc1ccccc1)C(=O)O :: 11700 nM
Nc1ccc(S(=O)(=O)N2CCC[C@H]2C(=O)N[C@H](CNC(=O)NCc2ccccc2)C(=O)O)cc1 :: 2030 nM

Below: the item to evaluate.
So, O=C(NC[C@H](NC(=O)[C@@H]1CCCN1S(=O)(=O)c1ccccc1)C(=O)O)Nc1ccccc1 ? Its IC50 was 296 nM
